SYSTEM NAME: FGFR1 kinase domain recombinant protein (Homo sapiens (Human), UniProt P11362)
Sequence (P11362 478-767): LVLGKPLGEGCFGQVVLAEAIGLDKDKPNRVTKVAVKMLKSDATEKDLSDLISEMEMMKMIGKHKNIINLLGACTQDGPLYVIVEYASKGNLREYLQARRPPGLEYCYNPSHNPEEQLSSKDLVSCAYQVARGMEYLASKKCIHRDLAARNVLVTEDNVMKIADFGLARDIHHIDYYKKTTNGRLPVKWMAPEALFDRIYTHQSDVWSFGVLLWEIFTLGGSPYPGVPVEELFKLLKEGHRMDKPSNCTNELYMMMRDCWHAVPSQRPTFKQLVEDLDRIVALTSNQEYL
ASSAY METHOD TEXT: Inhibition of receptor tyrosine kinase FGFR1 activity (ELISA)
pIC50: −log10 of the molar value.
PROPERTY NAME: pIC50

Here is how some molecules turned out for pIC50.
[[record]]
entry_smiles = "CNC(=O)c1cccc2cc(Oc3ccnc(NC(=O)c4ccc(N5C[C@@H](C)N[C@@H](C)C5)cc4C)c3)ccc12"
system_name = "FGFR1 kinase domain recombinant protein (Homo sapiens (Human), UniProt P11362)"
property_name = "pIC50"
test_value = "> 7.00"

[[record]]
entry_smiles = "CNC(=O)c1cccc2cc(Oc3ccnc(NC(=O)c4csc(N5CCN(C)CC5)n4)c3)ccc12"
system_name = "FGFR1 kinase domain recombinant protein (Homo sapiens (Human), UniProt P11362)"
property_name = "pIC50"
test_value = "> 7.00"

[[record]]
entry_smiles = "CNC(=O)c1cccc2cc(Oc3ccnc(NC(=O)c4ccc(N5C[C@@H](C)N[C@@H](C)C5)cc4)c3)ccc12"
system_name = "FGFR1 kinase domain recombinant protein (Homo sapiens (Human), UniProt P11362)"
property_name = "pIC50"
test_value = "> 8.00"


Let us move to another entry and its pIC50.
# input Can you look up pIC50 on FGFR1 kinase domain recombinant protein (Homo sapiens (Human), UniProt P11362) for CNC(=O)c1cccc2cc(Oc3ccnc(NC(=O)c4ccc(N5C[C@@H](C)N[C@@H](C)C5)cc4F)c3)ccc12 ?
# output < 6.00

----------
ASSAY METHOD TEXT: Pharmacokinetics in rats
Assay type: in vivo
TEST PARAMETERS: male, rat, plasma, po; SD rats, intragastric 10 mg/kg
PROPERTY NAME: Cmax (µg/mL)
Provide the reading as a plain figure in µg/mL.

# input Find the recorded Cmax belonging to CNC(=O)c1cccc2cc(Oc3ccnc(NC(=O)c4ccc(N5C[C@@H](C)N[C@@H](C)C5)cc4)c3)ccc12 and report it.
# output 0.399

----------
ASSAY METHOD TEXT: Pharmacokinetics in rats
Format: in vivo
TEST PARAMETERS: male, rat, plasma; SD rats, intravenous 5 mg/kg
Description: Seven SD rats, male, weighing 200-220 g, were randomly divided into two groups, 4 or 3 in each group. Compound S10 was administrated by intragastric or intravenous administration. Rats were fasted for 12 h before test, and had access to water ad libitum. The rats were uniformly fed 2 h after administration of. […] S10 in rat plasma was determined by LC/MS/MS. The pharmacokinetic parameters after administration were calculated by a non-compartmental model of WinNonlin 6.3 software (Pharsight, USA). […]
PROPERTY NAME: clearance

# input Find the recorded clearance belonging to CNC(=O)c1cccc2cc(Oc3ccnc(NC(=O)c4ccc(N5C[C@@H](C)N[C@@H](C)C5)cc4)c3)ccc12 [Compound S10] and report it.
# output 40.8 mL/min/kg

----------
ASSAY METHOD TEXT: Pharmacokinetics in rats
Assay type: in vivo
TEST PARAMETERS: male, rat, plasma, po; SD rats, intragastric 10 mg/kg
PROPERTY NAME: Tmax (h)
Provide the reading as a plain figure in h.

# input Find the recorded Tmax belonging to CNC(=O)c1cccc2cc(Oc3ccnc(NC(=O)c4ccc(N5C[C@@H](C)N[C@@H](C)C5)cc4)c3)ccc12 and report it.
# output 4.5

----------
ASSAY METHOD TEXT: Pharmacokinetics in rats
Format: in vivo
TEST PARAMETERS: male, rat, plasma; SD rats, intravenous 5 mg/kg; read-out: Vss
PROPERTY NAME: Vd (L/kg)
Provide the reading as a plain figure in L/kg.

# input Find the recorded Vd belonging to CNC(=O)c1cccc2cc(Oc3ccnc(NC(=O)c4ccc(N5C[C@@H](C)N[C@@H](C)C5)cc4)c3)ccc12 [Compound S10] and report it.
# output 11.3

----------
ASSAY METHOD TEXT: Pharmacokinetics in rats
Assay type: in vivo
TEST PARAMETERS: male, rat, plasma, oral; SD rats, intragastric 10 mg/kg vs intravenous 5 mg/kg
PROPERTY NAME: bioavailability (%)
Provide the reading as a plain figure in %.

# input Find the recorded bioavailability belonging to CNC(=O)c1cccc2cc(Oc3ccnc(NC(=O)c4ccc(N5C[C@@H](C)N[C@@H](C)C5)cc4)c3)ccc12 and report it.
# output 79.6

----------
SYSTEM NAME: FGFR1 kinase domain recombinant protein (Homo sapiens (Human))
ASSAY METHOD TEXT: Inhibition of receptor tyrosine kinase FGFR1 activity (ELISA)
pIC50: −log10 of the molar value.
List of pIC50 values.

Here is how some compounds turned out for pIC50.
[[record]]
compound = "CNC(=O)c1cccc2cc(Oc3ccnc(NC(=O)c4ccc(OCCN5CC(F)C5)cc4)c3)ccc12"
test_value = "> 7.00"

[[record]]
compound = "CNC(=O)c1cccc2cc(Oc3ccnc(NC(=O)c4ccc(N5CCN(CCO)CC5)cc4)c3)ccc12"
test_value = "> 8.00"

[[record]]
compound = "CNC(=O)c1cccc2cc(Oc3ccnc(NC(=O)c4ccc(C5CCNCC5)cc4)c3)ccc12"
test_value = "> 8.00"


# input Find the recorded pIC50 belonging to CNC(=O)c1cccc2cc(Oc3ccnc(NC(=O)c4cnc(N5C[C@@H](C)N[C@@H](C)C5)nc4)c3)ccc12 and report it.
# output > 7.00

# input Find the recorded pIC50 belonging to CNC(=O)c1cccc2cc(Oc3ccnc(NC(=O)c4ccc(OCC5(N)CC5)cc4)c3)ccc12 and report it.
# output > 8.00

# input Find the recorded pIC50 belonging to CNC(=O)c1cccc2cc(Oc3ccnc(NC(=O)c4cnn(CCO)c4)c3)ccc12 and report it.
# output > 8.00

----------
ASSAY METHOD TEXT: Pharmacokinetics in rats
Format: in vivo
TEST PARAMETERS: male, rat, plasma; SD rats, intravenous 5 mg/kg
PROPERTY NAME: half-life

# input Find the recorded half-life belonging to CNC(=O)c1cccc2cc(Oc3ccnc(NC(=O)c4ccc(N5C[C@@H](C)N[C@@H](C)C5)cc4)c3)ccc12 and report it.
# output 3.69 h

----------
SYSTEM NAME: FGFR1 kinase domain recombinant protein (Homo sapiens (Human))
ASSAY METHOD TEXT: Inhibition of receptor tyrosine kinase FGFR1 activity (ELISA)
Type: biochemical
TEST PARAMETERS: 1 h; read-out: Inhibition ratio (%) @ 0.1 μM
Please use True whenever inhibition at 0.1 µM is not below 90%, and False whenever it is.

[[record]]
compound = "CNC(=O)c1cccc2cc(Oc3ccnc(NC(=O)c4ccc(OCCN5CC(F)(F)C5)cc4)c3)ccc12"
discrete_label = "False"

[[record]]
compound = "CNC(=O)c1cccc2cc(Oc3ccnc(NC(=O)c4ccc(N5C[C@@H](C)N[C@@H](C)C5)cc4)c3)ccc12"
discrete_label = "True"

[[record]]
compound = "CNC(=O)c1cccc2cc(Oc3ccnc(NC(=O)c4coc(N5CCN(C)CC5)n4)c3)ccc12"
discrete_label = "False"

[[record]]
compound = "CNC(=O)c1cccc2cc(Oc3ccnc(NC(=O)c4ccc(N5CC(C)OC(C)C5)cc4)c3)ccc12 (stereo not drawn)"
discrete_label = "True"

[[record]]
compound = "CNC(=O)c1cccc2cc(Oc3ccnc(NC(=O)c4ccc(C5CCNCC5)cc4)c3)ccc12"
discrete_label = "False"


# input Does the compound CNC(=O)c1cccc2cc(Oc3ccnc(NC(=O)c4ccc(OCCN5CCCC5)cc4)c3)ccc12 have recorded inhibition at 0.1 µM that is 90% or more?
# output False

# input Does the compound CNC(=O)c1cccc2cc(Oc3ccnc(NC(=O)c4ccc(N5CCNC(C)C5)cc4)c3)ccc12 (stereo not drawn) have recorded inhibition at 0.1 µM that is 90% or more?
# output True

# input Does the compound CNC(=O)c1cccc2cc(Oc3ccnc(NC(=O)c4ccc(N5C[C@@H](C)N[C@@H](C)C5)cc4)n3)ccc12 have recorded inhibition at 0.1 µM that is 90% or more?
# output True

----------
List of IC50 values.
SYSTEM NAME: FGFR1 kinase domain recombinant protein (Homo sapiens (Human))
ASSAY METHOD TEXT: Inhibition of receptor tyrosine kinase FGFR1 activity (ELISA)

# input Can you look up IC50 on FGFR1 kinase domain recombinant protein (Homo sapiens (Human)) for CNC(=O)c1cccc2cc(Oc3ccnc(NC(=O)c4ccc(N5C[C@@H](C)N[C@@H](C)C5)cc4OC)c3)ccc12 [Compound S14] ?
# output < 1000 nM

# input Can you look up IC50 on FGFR1 kinase domain recombinant protein (Homo sapiens (Human)) for CNC(=O)c1cccc2cc(Oc3ccnc(NC(=O)c4coc(N5CCN(C)CC5)n4)c3)ccc12 [Compound S18] ?
# output < 100 nM

# input Can you look up IC50 on FGFR1 kinase domain recombinant protein (Homo sapiens (Human)) for CNC(=O)c1cccc2cc(Oc3ccnc(NC(=O)c4ccc(N5CCOCC5)cc4)c3)ccc12 [Compound S7] ?
# output < 10 nM

# input Can you look up IC50 on FGFR1 kinase domain recombinant protein (Homo sapiens (Human)) for CNC(=O)c1cccc2cc(Oc3ccnc(NC(=O)c4ccc(OCCN5CC(F)(F)C5)cc4)c3)ccc12 [Compound S2] ?
# output < 100 nM

# input Can you look up IC50 on FGFR1 kinase domain recombinant protein (Homo sapiens (Human)) for COC(=O)c1cccc2cc(Oc3ccnc(NC(=O)c4ccc(N5C[C@@H](C)N[C@@H](C)C5)cc4)c3)ccc12 [Compound S24] ?
# output < 10 nM

# input Can you look up IC50 on FGFR1 kinase domain recombinant protein (Homo sapiens (Human)) for CNC(=O)c1cccc2cc(Oc3ccnc(NC(=O)c4ccc(N5CCNC(C)C5)cc4)c3)ccc12 (centres unmarked) [Compound S9] ?
# output < 10 nM

# input Can you look up IC50 on FGFR1 kinase domain recombinant protein (Homo sapiens (Human)) for CNC(=O)c1cccc2cc(Oc3ccnc(NC(=O)c4ccc(NCC5(O)CCOCC5)cc4)c3)ccc12 [Compound S23] ?
# output < 10 nM

# input Can you look up IC50 on FGFR1 kinase domain recombinant protein (Homo sapiens (Human)) for CNC(=O)c1cccc2cc(Oc3ccnc(NC(=O)c4ccc(N5CC(C)OC(C)C5)cc4)c3)ccc12 (centres unmarked) [Compound S8] ?
# output < 10 nM

# input Can you look up IC50 on FGFR1 kinase domain recombinant protein (Homo sapiens (Human)) for CNC(=O)c1cccc2cc(Oc3ccnc(NC(=O)c4ccc(N5C[C@@H](C)N[C@@H](C)C5)cc4)n3)ccc12 [Compound S20] ?
# output < 10 nM

# input Can you look up IC50 on FGFR1 kinase domain recombinant protein (Homo sapiens (Human)) for CNC(=O)c1cccc2cc(Oc3ccnc(NC(=O)c4ccc(OCCN5CCCC5)cc4)c3)ccc12 [Compound S4] ?
# output < 10 nM

# input Can you look up IC50 on FGFR1 kinase domain recombinant protein (Homo sapiens (Human)) for CNC(=O)c1cccc2cc(Oc3ccnc(NC(=O)c4ccc(CN5CCN(C)CC5)c(C(F)(F)F)c4)c3)ccc12 [Compound S12] ?
# output < 1000 nM
